# reported IC50; entries follow
assay.target: Sodium-dependent serotonin transporter (Rattus norvegicus, UniProt P31652)
Sequence (P31652 whole entry): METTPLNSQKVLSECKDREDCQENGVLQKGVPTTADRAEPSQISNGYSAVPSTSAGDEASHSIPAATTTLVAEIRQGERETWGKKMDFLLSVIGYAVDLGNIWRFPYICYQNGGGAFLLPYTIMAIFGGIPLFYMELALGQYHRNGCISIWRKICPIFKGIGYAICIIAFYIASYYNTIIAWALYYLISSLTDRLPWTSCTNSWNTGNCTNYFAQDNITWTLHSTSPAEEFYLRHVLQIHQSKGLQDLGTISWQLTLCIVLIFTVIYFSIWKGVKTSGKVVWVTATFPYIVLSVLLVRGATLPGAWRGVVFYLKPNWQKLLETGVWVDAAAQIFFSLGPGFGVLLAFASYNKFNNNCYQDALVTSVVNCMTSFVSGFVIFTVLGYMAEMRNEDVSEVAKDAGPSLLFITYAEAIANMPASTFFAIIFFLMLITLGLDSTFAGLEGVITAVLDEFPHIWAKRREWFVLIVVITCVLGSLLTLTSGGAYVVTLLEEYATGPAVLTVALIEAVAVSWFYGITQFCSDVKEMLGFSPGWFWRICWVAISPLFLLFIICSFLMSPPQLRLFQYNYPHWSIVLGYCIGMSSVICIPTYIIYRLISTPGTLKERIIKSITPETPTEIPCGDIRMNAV

Some solved cases for reference:
- molecule: "COCO[C@H]1CC2C[C@H](OC(c3ccc(F)cc3)c3ccc(F)cc3)CC1N2C (some centres not stated)"
  test.value: "> 100 µM"
- molecule: "CO[C@H]1CC2C[C@H](OC(c3ccccc3)c3ccc(Cl)cc3)CC1N2C (some centres not stated)"
  test.value: "> 100 µM"
- molecule: "CN1C2CCCC1[C@@H](OC(c1ccc(F)cc1)c1ccc(F)cc1)C2 (some centres not stated)"
  test.value: "> 2 µM"
- molecule: "CO[C@H]1CC2C[C@H](OC(c3ccccc3)c3ccccc3)CC1N2C (some centres not stated)"
  test.value: "> 100 µM"
- molecule: "COCO[C@@H]1CC2C[C@H](OC(c3ccc(F)cc3)c3ccc(F)cc3)CC1N2C (some centres not stated)"
  test.value: "3.5 µM"

Let me know recorded IC50 for COCO[C@H]1CC2C[C@H](OC(c3ccccc3)c3ccccc3)CC1N2C (some centres not stated) , thanks.
> 100 µM

Let me know recorded IC50 for CO[C@@H]1CC2CC(OC(c3ccccc3)c3ccc(Cl)cc3)CC1N2C (single isomer, unassigned) , thanks.
> 100 µM
